Recorded GI50, one value per entry.
# Tested on: DU-145
# Test Protocol: SRB colorimetric assay of cell growth and viability, DU-145
# Type: cell-based, human
# Assay Context: 48 hours exposure, SRB
Where a SMILES comes first, the peptide text is derived from it. Bridges are numbered along the chain shown (N, C = ends). [ ]: non-standard residue; d: D form. The star is where a group is joined. d(aIle) = CC[C@H](C)[C@@H](N)C(=O)O; d(aThr) = C[C@@H](O)[C@@H](N)C(=O)O; Hexanoyl(5-Me) = CC(C)CCCC(=O)*; Orn = NCCC[C@H](N)C(=O)O; Dha = C=C(N)C(=O)O
// return numeric value only (unit: nM, not printed)

Compound	GI50, nM
C/C=C1\NC(=O)[C@H](Cc2ccccc2)NC(=O)[C@@H](C(C)C)NC(=O)[C@@H]([C@@H](C)CC)NC(=O)[C@H](NC(=O)[C@H](NC(=O)[C@H](CCCC[N+](C)(C)C)NC(=O)[C@H]2CCCN2C(=O)[C@H](NC(=O)[C@@H](NC(=O)[C@@H](NC(=O)[C@H](NC(=O)CC[C@@H](C)CC)C(C)C)[C@@H](C)O)C(C)C)C(C)C)[C@@H](C)CC)[C@@H](C)OC(=O)[C@H](C(C)C)NC1=O [Compound 93, [N^ε(Me)3-Lys^8, (4S)-MeHex^14]-KF]	6.21

IN: I am curious: what GI50 value has been reported for C=C1NC(=O)[C@H](Cc2ccccc2)NC(=O)[C@@H](C(C)C)NC(=O)[C@@H]([C@@H](C)CC)NC(=O)[C@H](NC(=O)[C@H](NC(=O)[C@H](CCCN)NC(=O)[C@H]2CCCN2C(=O)[C@H](NC(=O)[C@@H](NC(=O)[C@@H](NC(=O)[C@H](NC(=O)CCCC(C)C)C(C)C)[C@@H](C)O)C(C)C)C(C)C)[C@@H](C)CC)[C@@H](C)OC(=O)[C@H](C(C)C)NC1=O [Compound 67, [Dha^2]-KF] ({Hexanoyl(5-Me)}-[dV]TV[dV][dP][Orn][d(aIle)][d(aThr)][d(aIle)][dV]F[Dha]V; ester 8-C) ?
OUT: 915

----------
# Tested on: SK-BR-3
# Test Protocol: SRB colorimetric assay of cell growth and viability, SK-BR-3
# Assay type: cell-based, human
# Assay Context: SK-BR-3; 48 hours exposure
Where a SMILES comes first, the peptide text is derived from it. Bridges are numbered along the chain shown (N, C = ends). [ ]: non-standard residue; d: D form. The star is where a group is joined. Bip = N[C@@H](Cc1ccc(-c2ccccc2)cc1)C(=O)O; d(aIle) = CC[C@H](C)[C@@H](N)C(=O)O; d(aThr) = C[C@@H](O)[C@@H](N)C(=O)O; Hexanoyl(5-Me) = CC(C)CCCC(=O)*; Orn = NCCC[C@H](N)C(=O)O; Dhb = C/C=C(\N)C(=O)O
Observable: GI50 (nM)
Dear colleague, please return just the value in nM, with no unit written.

IN: Any idea what its GI50 is? The molecule is C/C=C1\NC(=O)[C@H](Cc2ccc(-c3ccccc3)cc2)NC(=O)[C@@H](C(C)C)NC(=O)[C@@H]([C@@H](C)CC)NC(=O)[C@H](NC(=O)[C@H](NC(=O)[C@H](CCCN)NC(=O)[C@H]2CCCN2C(=O)[C@H](NC(=O)[C@@H](NC(=O)[C@@H](NC(=O)[C@H](NC(=O)CCCC(C)C)C(C)C)[C@@H](C)O)C(C)C)C(C)C)[C@@H](C)CC)[C@@H](C)OC(=O)[C@H](C(C)C)NC1=O [Compound 86, [Bip^3]-KF] ({Hexanoyl(5-Me)}-[dV]TV[dV][dP][Orn][d(aIle)][d(aThr)][d(aIle)][dV][Bip][Dhb]V; ester 8-C)
OUT: 28.9
